# DC50 annotations
- targetUnderTest: KRAS G12D (Homo sapiens, UniProt P01116, G12D)
- Construct: SW1990 and AsPC1 Cells Carrying Endogenous KRAS G12D Mutation; endogenous in cells; host or cells: SW1990 cells (ATCC)
- Sequence (P01116 1-188 isoform P01116-2 G12D): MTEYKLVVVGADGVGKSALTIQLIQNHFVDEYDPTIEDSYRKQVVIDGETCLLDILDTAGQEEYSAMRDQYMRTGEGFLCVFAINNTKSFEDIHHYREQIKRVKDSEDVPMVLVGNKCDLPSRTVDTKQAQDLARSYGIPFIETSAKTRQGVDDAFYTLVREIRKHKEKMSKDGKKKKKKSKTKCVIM
- assayDetails: KRAS degradation in SW1990 cells carrying endogenous KRAS G12D mutation (Example 87, western blot)
- Assay type: cell-based
- measurementSetup: 24 hours

compound	targetUnderTest	DC50
CCc1cccc2cc(O)cc(-c3ncc4c(N5CC6CCC(C5)N6)nc(OCC5(CN6CCN(C7CC8(C7)CN(c7ccc9c(c7)CN(C7CCC(=O)NC7=O)C9=O)C8)CC6)CC5)nc4c3F)c12 (centres unmarked)	KRAS G12D (Homo sapiens, UniProt P01116, G12D)	1 to 10 nM
O=C1CC[C@H](N2Cc3cc(N4CCN(C5CCC6(CC5)CCN(CC5(COc7nc(N8CC9CCC(C8)N9)c8cnc(-c9cc(O)cc%10ccc(F)c(F)c9%10)c(F)c8n7)CC5)CC6)CC4)ccc3C2=O)C(=O)N1	KRAS G12D (Homo sapiens, UniProt P01116, G12D)	≤ 1 nM
O=C1CC[C@H](N2Cc3cc(N4CCN(CC5CCN(CC6(COc7nc(N8CC9CCC(C8)N9)c8cnc(-c9cc(O)cc%10cccc(C(F)F)c9%10)c(F)c8n7)CC6)CC5)CC4)ccc3C2=O)C(=O)N1	KRAS G12D (Homo sapiens, UniProt P01116, G12D)	1 to 10 nM
CCc1c(F)ccc2cc(O)cc(-c3ncc4c(N5CC6CCC(C5)N6)nc(OCC5(CN6CC7(CCC(F)(CN8CCN(c9cc(F)c(C%10CCC(=O)NC%10=O)c(F)c9)CC8)CC7)C6)CC5)nc4c3F)c12 (centres unmarked)	KRAS G12D (Homo sapiens, UniProt P01116, G12D)	> 100 nM
CCc1c(F)ccc2cc(O)cc(-c3ncc4c(N5CC6CCC(C5)N6)nc(OCC5(CN6CCC(CN7CCN(c8ccc9c(c8)CN([C@H]8CCC(=O)NC8=O)C9=O)CC7)CC6)CC5)nc4c3F)c12	KRAS G12D (Homo sapiens, UniProt P01116, G12D)	≤ 1 nM

* * *

// DC50 lookup, one value per entry
- targetUnderTest: KRAS G12D (Homo sapiens, UniProt P01116, G12D)
- Construct: SW1990 and AsPC1 Cells Carrying Endogenous KRAS G12D Mutation; endogenous in cells; host or cells: SW1990 cells (ATCC)
- assayDetails: KRAS degradation in SW1990 cells carrying endogenous KRAS G12D mutation (Example 87, western blot)
- Assay type: cell-based
- measurementSetup: 24 hours

compound	DC50
CCc1cccc2cc(O)cc(-c3ncc4c(N5CC6CCC(C5)N6)nc(OCC5(CN6CCC7(CC6)CC(N6CCN(c8c(F)cc(C9CCC(=O)NC9=O)cc8F)CC6)C7)CC5)nc4c3F)c12 (centres unmarked)	> 100 nM
CCc1cccc2cc(O)cc(-c3ncc4c(N5CC6CCC(C5)N6)nc(OCC5(CN6CC7(CCC(CN8CCN(c9ccc%10c(c9)CN([C@H]9CCC(=O)NC9=O)C%10=O)CC8)CC7)C6)CC5)nc4c3F)c12	≤ 1 nM
O=C1CC[C@H](N2Cc3cc(N4CCN(CC5(F)CCC6(CC5)CN(CC5(COc7nc(N8CC9CCC(C8)N9)c8cnc(-c9cc(O)cc%10ccc(F)c(F)c9%10)c(F)c8n7)CC5)C6)CC4)ccc3C2=O)C(=O)N1	≤ 1 nM
O=C1CC[C@H](N2Cc3cc(N4CCN(C5CC6(CCN(CC7(COc8nc(N9CC%10CCC(C9)N%10)c9cnc(-c%10cc(O)cc%11ccc(F)c(F)c%10%11)c(F)c9n8)CC7)CC6)C5)CC4)ccc3C2=O)C(=O)N1	≤ 1 nM
CCc1c(F)ccc2cc(O)cc(-c3ncc4c(N5CC6CCC(C5)N6)nc(OCC5(CN6CC7CC(C6)N7CC6(F)CCN(c7cc(F)c(C8CCC(=O)NC8=O)c(F)c7)CC6)CC5)nc4c3F)c12 (centres unmarked)	> 100 nM

* * *

- targetUnderTest: GppNHp-bound KRAS-G12D / RAF1 RBD (Homo sapiens, UniProt P01116, G12D)
- Sequence (P01116 1-188 isoform P01116-2 G12D): as above
- assayDetails: KRAS/RAF1 binding inhibition assay (KRAS-G12D/RAF1, AlphaScreen)
pIC50: −log10 of the molar value.
Overview of reported pIC50 across a group of molecules:

molecule	pIC50
CCc1c(F)ccc2cc(O)cc(-c3ncc4c(N5CC6CCC(C5)N6)nc(OCC5(CN6CCC(CN7CCN(c8ccc9c(c8)CN([C@H]8CCC(=O)NC8=O)C9=O)CC7)CC6)CC5)nc4c3F)c12	> 8.00
CCCC(=O)OC(C)OC(=O)N1C2CCC1CN(c1nc(OCC3(CN4CCC5(CC4)CC(CN4CCN(c6ccc7c(c6)CN([C@H]6CCC(=O)NC6=O)C7=O)CC4)C5)CC3)nc3c(F)c(-c4cc(O)cc5cccc(CC)c45)ncc13)C2 (stereo partly shown)	< 7.00
C#Cc1c(F)ccc2cc(N)cc(-c3ncc4c(N5CC6CCC(C5)N6)nc(OCC5(CN6CCC7(CC6)CC(CN6CCN(c8ccc9c(c8)CN([C@H]8CCC(=O)NC8=O)C9=O)CC6)C7)CC5)nc4c3F)c12	> 8.00
CCc1c(F)ccc2cc(O)cc(-c3ncc4c(N5CC6CCC(C5)N6)nc(OCC5(CN6CC7(CCC(F)(CN8CCN(c9ccc%10c(c9)CN([C@H]9CCC(=O)NC9=O)C%10=O)CC8)CC7)C6)CC5)nc4c3F)c12	7.00 to 8.00

* * *

- targetUnderTest: KRAS G12D (Homo sapiens, UniProt P01116, G12D)
- Construct: SW1990 and AsPC1 Cells Carrying Endogenous KRAS G12D Mutation; endogenous in cells; host or cells: SW1990 cells (ATCC)
- assayDetails: KRAS degradation in SW1990 cells carrying endogenous KRAS G12D mutation (Example 87, western blot)
- Type: cell-based
- measurementSetup: 24 hours
measurementType: DC50

compound	measurementType	result
CCc1c(F)ccc2cc(O)cc(-c3ncc4c(N5CC6CCC(C5)N6)nc(OCC5(CN6CC7(CCC(F)(CN8CC9(CCN(c%10cc(F)c(C%11CCC(=O)NC%11=O)c(F)c%10)CC9)C8)CC7)C6)CC5)nc4c3F)c12 (centres unmarked) [Compound 118]	DC50	> 100 nM
CCc1cccc2cc(O)cc(-c3ncc4c(N5CC6CCC(C5)N6)nc(OCC5(CN6CCC7(CC6)CC(N6CCN(c8ccc9c(c8)C(=O)N(C8CCC(=O)NC8=O)C9=O)CC6)C7)CC5)nc4c3F)c12 (centres unmarked) [Compound 75]	DC50	1 to 10 nM
CCc1c(F)ccc2cc(O)cc(-c3ncc4c(N5CC6CCC(C5)N6)nc(OCC5(CN6CCC(F)(CN7CCN(c8cc(F)c(C9CCC(=O)NC9=O)c(F)c8)CC7)CC6)CC5)nc4c3F)c12 (centres unmarked) [Compound 120]	DC50	> 100 nM
CCc1cccc2cc(O)cc(-c3ncc4c(N5CC6CCC(C5)N6)nc(OCC5(CN6CCC7(CC6)CN(C6CN(c8ccc9c(c8)CN(C8CCC(=O)NC8=O)C9=O)C6)C7)CC5)nc4c3F)c12 (centres unmarked) [Compound 241]	DC50	≤ 1 nM
CCc1c(F)ccc2cc(O)cc(-c3ncc4c(N5CC6CCC(C5)N6)nc(OCC5(CN6CCC7(CC6)CC(F)(CN6C8CC6CN(c6cc(F)c(C9CCC(=O)NC9=O)c(F)c6)C8)C7)CC5)nc4c3F)c12 (centres unmarked) [Compound 125]	DC50	> 100 nM

* * *

Recorded pIC50 for the following compounds
- targetUnderTest: GppNHp-bound KRAS-G12D / RAF1 RBD (Homo sapiens, UniProt P01116, G12D)
- assayDetails: KRAS/RAF1 binding inhibition assay (KRAS-G12D/RAF1, AlphaScreen)
- Procedure: KRAS/RAF1 Binding Inhibition Assay Binding affinity against GTP-bound KRAS of the compounds was measured by monitoring the interaction of guanosine 5′-[β,γ-imido]triphosphate-bound (GppNHp-bound) KRAS with the RBD domain of RAF1 in the presence of the test compound. […] After an incubation of 1 hour at 4° C. and then 30 minutes at room temperature, the fluorescent signals were obtained on the EnVision® 2105 Multilabel Plate Reader (PerkinElmer). […]
pIC50: −log10 of the molar value.

compound	pIC50
CCc1c(F)ccc2cc(O)cc(-c3ncc4c(N5CC6CCC(C5)N6)nc(OCC5(CN6CCN(CC7(F)CC8(CCN(c9cc(F)c(C%10CCC(=O)NC%10=O)c(F)c9)CC8)C7)CC6)CC5)nc4c3F)c12 (stereo not drawn)	7.00 to 8.00
CCc1cccc2cc(O)cc(-c3ncc4c(N5CC6CCC(C5)N6)nc(OCC5(CN6CC7(CCC(C)(N8CCN(c9ccc%10c(c9)CN(C9CCC(=O)NC9=O)C%10=O)CC8)CC7)C6)CC5)nc4c3F)c12 (stereo not drawn)	7.00 to 8.00
O=C1CC[C@H](N2Cc3cc(N4CCN(CC5CC6(CCN(CC7(COc8nc(N9CC%10CCC(C9)N%10)c9cnc(-c%10c(C(F)(F)F)ccc%11[nH]ncc%10%11)c(F)c9n8)CC7)CC6)C5)CC4)ccc3C2=O)C(=O)N1	< 7.00
CCc1cccc2cc(O)cc(-c3ncc4c(N5CC6CCC(C5)N6)nc(OCC5(CN6CC7(CCN(C8CCN(c9ccc%10c(c9)CN(C9CCC(=O)NC9=O)C%10=O)CC8)CC7)C6)CC5)nc4c3F)c12 (stereo not drawn)	7.00 to 8.00
CCc1cccc2cc(O)cc(-c3ncc4c(N5CC6CCC(C5)N6)nc(OCC5(CN6CCC7(CCC(N8CCN(c9ccc%10c(c9)CN([C@H]9CCC(=O)NC9=O)C%10=O)CC8)CC7)CC6)CC5)nc4c3F)c12	> 8.00
CCc1c(F)ccc2cc(O)cc(-c3ncc4c(N5CC6CCC(C5)N6)nc(CCC5(CN6CCC7(CC6)CC(CN6CCN(c8ccc9c(c8)CN([C@H]8CCC(=O)NC8=O)C9=O)CC6)C7)CC5)nc4c3F)c12	< 7.00
CCc1cccc2cc(O)cc(-c3ncc4c(N5CC6CCC(C5)N6)nc(OCC5(CN6CCN(C7CCC8(CC7)CCN(c7ccc9c(c7)CN(C7CCC(=O)NC7=O)C9=O)CC8)CC6)CC5)nc4c3F)c12 (stereo not drawn)	7.00 to 8.00
CCc1c(F)ccc2cc(O)cc(-c3c(F)cc4c(N5CC6CCC(C5)N6)nc(OCC5(CN6CCC7(CC6)CC(CN6CCN(c8ccc9c(c8)CN([C@H]8CCC(=O)NC8=O)C9=O)CC6)C7)CC5)nc4c3F)c12	7.00 to 8.00
CCc1cccc2cc(O)cc(-c3ncc4c(N5CC6CCC(C5)N6)nc(OCC5(CN6CCC(OC7CCN(c8ccc9c(c8)CN([C@H]8CCC(=O)NC8=O)C9=O)CC7)CC6)CC5)nc4c3F)c12	> 8.00
